Test Target: T1, CD19 (UniProt P15391 20-556, limits assumed)
T1 sequence (looked up): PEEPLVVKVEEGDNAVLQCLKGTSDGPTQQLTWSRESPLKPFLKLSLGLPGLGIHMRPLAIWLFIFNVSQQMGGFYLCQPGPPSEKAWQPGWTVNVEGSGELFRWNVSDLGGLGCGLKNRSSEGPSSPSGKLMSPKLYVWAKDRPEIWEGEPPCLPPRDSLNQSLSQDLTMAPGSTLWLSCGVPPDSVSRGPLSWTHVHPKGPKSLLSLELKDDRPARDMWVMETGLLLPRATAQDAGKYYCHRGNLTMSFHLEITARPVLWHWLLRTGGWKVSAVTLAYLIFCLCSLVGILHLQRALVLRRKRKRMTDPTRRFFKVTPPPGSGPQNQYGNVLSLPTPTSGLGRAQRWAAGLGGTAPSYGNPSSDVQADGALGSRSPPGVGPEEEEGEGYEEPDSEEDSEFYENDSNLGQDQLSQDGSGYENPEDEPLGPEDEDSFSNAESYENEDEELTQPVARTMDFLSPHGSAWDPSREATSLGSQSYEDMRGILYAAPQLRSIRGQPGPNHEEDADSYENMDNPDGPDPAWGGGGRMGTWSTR
Measurement Notes: cell-based or functional assay
Experimental Endpoint: EC50 of cytotoxicity (LDH), sCAR-T cells + switch vs CD19+ RS4;11, assay DTR-5-50 (PBMC) (pM)
Provide only the numeric value, understood in pM.

hFMCL2a-LCNT/hFMCH4c (Fab, V domains shown) VH: QVQLQESGPGLVKPSETLSVTCTVSGVSLPDYGVSWIRQPPGKGLEWLGVIWGSETTYYNSALKSRLTISKDNSKNQVSLKMSSLTAADTAVYYCAKHYYYGGSYAMDYWGQGTLVTVSS VL: DIQMTQSPSSLSASVGDRVTITCRASQDISKYLNWYQQKPGKAVKLLIYHTSRLHSGVPSRFSGSGSGTDYTLTISSLQPEDFATYYCQQGATLPYTFGQGTKLEIK : 7.05
hFMCL2b-LCNT/hFMCH4c (Fab, V domains shown) VH: QVQLQESGPGLVKPSETLSVTCTVSGVSLPDYGVSWIRQPPGKGLEWLGVIWGSETTYYNSALKSRLTISKDNSKNQVSLKMSSLTAADTAVYYCAKHYYYGGSYAMDYWGQGTLVTVSS VL: DIQMTQSPSSLSASVGDRVTITCRASQDISKYLNWYQQKPGKAVKLLIYHTSRLHSGVPSRFSGSGSGTDYTLTISSLQPEDFATYFCQQGATLPYTFGQGTKLEIK : 3.78
hFMCL2b/H4c-x-(Q1E)-WT (antibody, V domains shown) VH: EVQLQESGPGLVKPSETLSLTCTVSGVSLPDYGVSWIRQPPGKGLEWIGVIWGSETTYYNSALKSRVTISKDNSKNQFSLKLSSVTAADTAVYYCAKHYYYGGSYAMDYWGQGTLVTVSS VL: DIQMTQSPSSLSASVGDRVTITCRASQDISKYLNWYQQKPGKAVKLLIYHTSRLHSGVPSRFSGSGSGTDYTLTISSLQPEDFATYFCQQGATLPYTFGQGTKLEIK : 15.1
hFMCL2/H2 WT (antibody, V domains shown) VH: QVQLQESGPGLVKPSETLSVTCTVSGVSLPDYGVSWIRQPPGKGLEWLGVIWGSETTYYNPSLKSRLTISKDTSKNQVSLKMSSLTAADTAVYYCARHYYYGGSYAMDYWGQGTLVTVSS VL: DIQMTQSPSSLSASVGDRVTITCRASQDISKYLNWYQQKPGKAPKLLIYHTSRLHSGVPSRFSGSGSGTDYTLTISSLQPEDFATYYCQQGATLPYTFGQGTKLEIK : 38.6

Task: Field request: EC50 of cytotoxicity (LDH), sCAR-T cells + switch vs CD19+ RS4;11, assay DTR-5-50 (PBMC) | item: hFMCL2b/H4c(Q1E)-WT (antibody, V domains shown) VH: EVQLQESGPGLVKPSETLSVTCTVSGVSLPDYGVSWIRQPPGKGLEWLGVIWGSETTYYNSALKSRLTISKDNSKNQVSLKMSSLTAADTAVYYCAKHYYYGGSYAMDYWGQGTLVTVSS VL: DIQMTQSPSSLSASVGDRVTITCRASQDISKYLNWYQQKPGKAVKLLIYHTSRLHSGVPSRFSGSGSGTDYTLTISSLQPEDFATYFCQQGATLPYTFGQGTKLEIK
Result: 8.25

Value source: patent US20190359697A1
